- experimental.system: T1, CEACAM1 (Sino Biological) (human, UniProt P13688 35-428, limits assumed)
- T1 construct: may be the same as CEACAM1-HIS; also called hCEACAM1; biotinylated soluble CEACAM1
- T1 sequence: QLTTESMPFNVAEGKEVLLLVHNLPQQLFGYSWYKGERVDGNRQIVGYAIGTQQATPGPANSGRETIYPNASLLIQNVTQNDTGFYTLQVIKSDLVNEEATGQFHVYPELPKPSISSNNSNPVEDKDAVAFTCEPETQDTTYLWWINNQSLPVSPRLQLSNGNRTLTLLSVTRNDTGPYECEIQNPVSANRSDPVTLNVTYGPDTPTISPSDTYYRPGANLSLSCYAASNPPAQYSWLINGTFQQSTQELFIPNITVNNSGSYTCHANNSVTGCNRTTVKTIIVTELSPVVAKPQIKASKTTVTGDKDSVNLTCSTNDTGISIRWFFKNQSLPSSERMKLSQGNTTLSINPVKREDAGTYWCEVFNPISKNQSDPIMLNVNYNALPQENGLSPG
- assay.remarks: SPR single-cycle
measurement.name: Kd (nM)

• He4/L19 (antibody, IgG4, V domains shown, IgG4 S241P, kappa) VH: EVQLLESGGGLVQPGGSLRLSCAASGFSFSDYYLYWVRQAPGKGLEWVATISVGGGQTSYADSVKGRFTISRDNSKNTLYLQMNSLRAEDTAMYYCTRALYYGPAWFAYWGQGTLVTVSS VL: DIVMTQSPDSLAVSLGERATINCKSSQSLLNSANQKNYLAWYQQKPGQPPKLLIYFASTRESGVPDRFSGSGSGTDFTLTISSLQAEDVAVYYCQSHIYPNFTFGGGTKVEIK = 90
• Parent VH/L19 (antibody, IgG4, V domains shown, IgG4 S241P, kappa) VH: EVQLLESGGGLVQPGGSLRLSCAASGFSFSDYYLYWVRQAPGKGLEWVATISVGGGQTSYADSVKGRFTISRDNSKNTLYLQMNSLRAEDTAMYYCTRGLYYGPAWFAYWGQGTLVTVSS VL: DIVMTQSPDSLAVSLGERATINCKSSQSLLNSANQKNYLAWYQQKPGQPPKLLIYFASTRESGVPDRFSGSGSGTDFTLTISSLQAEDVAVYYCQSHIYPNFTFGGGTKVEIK = 77
• He9/L2 (antibody, IgG4, V domains shown, IgG4 S241P, kappa) VH: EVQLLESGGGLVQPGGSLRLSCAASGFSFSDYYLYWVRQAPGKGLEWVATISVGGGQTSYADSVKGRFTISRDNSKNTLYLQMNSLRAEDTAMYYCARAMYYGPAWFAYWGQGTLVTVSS VL: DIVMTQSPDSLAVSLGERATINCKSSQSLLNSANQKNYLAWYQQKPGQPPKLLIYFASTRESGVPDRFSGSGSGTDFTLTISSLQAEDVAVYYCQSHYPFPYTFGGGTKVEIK = 70
• He13/L18 (antibody, IgG4, V domains shown, IgG4 S241P, kappa) VH: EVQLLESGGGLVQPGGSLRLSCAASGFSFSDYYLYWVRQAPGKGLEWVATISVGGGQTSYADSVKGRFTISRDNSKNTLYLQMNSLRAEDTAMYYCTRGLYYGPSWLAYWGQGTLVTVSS VL: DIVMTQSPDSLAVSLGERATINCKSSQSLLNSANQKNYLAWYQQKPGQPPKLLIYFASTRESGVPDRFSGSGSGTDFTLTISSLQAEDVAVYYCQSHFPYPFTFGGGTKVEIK = 103
• He3/L3 (antibody, IgG4, V domains shown, IgG4 S241P, kappa) VH: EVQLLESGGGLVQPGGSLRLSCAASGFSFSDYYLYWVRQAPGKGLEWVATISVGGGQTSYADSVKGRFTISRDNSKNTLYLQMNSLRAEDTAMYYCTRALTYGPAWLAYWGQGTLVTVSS VL: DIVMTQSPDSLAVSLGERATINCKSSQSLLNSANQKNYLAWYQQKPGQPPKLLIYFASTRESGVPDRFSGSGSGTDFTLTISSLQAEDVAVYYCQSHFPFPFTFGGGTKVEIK = 163
